Data origin: ChEMBL document CHEMBL2150881

Target: Cannabinoid receptor 2 (Homo sapiens, UniProt P34972)
Sequence (P34972 whole entry): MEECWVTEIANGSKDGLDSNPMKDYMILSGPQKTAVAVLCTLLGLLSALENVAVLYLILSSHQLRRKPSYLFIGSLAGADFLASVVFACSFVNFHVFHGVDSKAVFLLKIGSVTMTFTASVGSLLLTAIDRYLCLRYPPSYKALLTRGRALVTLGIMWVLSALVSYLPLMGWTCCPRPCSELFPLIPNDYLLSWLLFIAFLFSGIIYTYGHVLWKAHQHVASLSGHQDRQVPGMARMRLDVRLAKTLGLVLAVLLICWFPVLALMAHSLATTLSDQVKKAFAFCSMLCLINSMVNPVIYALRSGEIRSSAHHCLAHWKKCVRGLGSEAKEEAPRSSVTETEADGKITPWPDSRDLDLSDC
Experiment: Displacement of 3[H]ligand from recombinant human CB2 receptor
ASSAY_METRIC: IC50

Example cases with answers are listed next.
1) C[C@@H](O)[C@H](N/C(=N/S(=O)(=O)c1ccc(Cl)cc1)N1CC(c2ccccc2)C(c2ccc(Cl)cc2)=N1)C(N)=O (some centres undefined) = > 5 µM
2) C[C@H](N/C(=N\S(=O)(=O)c1ccc(Cl)cc1)N1CC(c2ccccc2)C(c2ccc(Cl)cc2)=N1)C(N)=O (some centres undefined) = > 1 µM
3) NC(=O)CNC(=O)CN/C(=N\S(=O)(=O)c1ccc(Cl)cc1)N1CC(c2ccccc2)C(c2ccc(Cl)cc2)=N1 (centres undefined) = > 5 µM
4) NC(=O)[C@H](Cc1ccccc1)N=C(NS(=O)(=O)c1ccc(Cl)cc1)N1CC(c2ccccc2)C(c2ccc(Cl)cc2)=N1 (some centres undefined) = > 5 µM
5) COc1ccc(S(=O)(=O)/N=C(\N[C@@H](C)C(=O)N[C@@H](CO)C(N)=O)N2CC(c3ccccc3)C(c3ccc(Cl)cc3)=N2)cc1 (some centres undefined) = > 5 µM

Exercise: Form entry - test system: Cannabinoid receptor 2 (Homo sapiens, UniProt P34972); read-out: IC50; molecule: NC(=O)[C@@H](N/C(=N\S(=O)(=O)c1ccc(Cl)cc1)N1CC(c2ccccc2)C(c2ccc(Cl)cc2)=N1)C1CCC1 (some centres undefined)
Key: > 1 µM

Exercise: Form entry - test system: Cannabinoid receptor 2 (Homo sapiens, UniProt P34972); read-out: IC50; molecule: C[C@H](N/C(=N\S(=O)(=O)c1ccc(O)cc1)N1CC(c2ccccc2)C(c2ccc(Cl)cc2)=N1)C(N)=O (some centres undefined)
Key: > 5 µM

* * *

Molecular target: Cannabinoid receptor 2 (Homo sapiens, UniProt P34972)
Assay: Displacement of 3[H]ligand from recombinant human CB2 receptor
ASSAY_METRIC: IC50 (µM)
Dear colleague, please return just the value in µM, with no unit written.

Exercise: Please look up its IC50: NC(=O)CN=C(NS(=O)(=O)c1ccc(O)cc1)N1CC(c2ccccc2)C(c2ccc(Cl)cc2)=N1 (centres undefined)
Key: 5

Exercise: Please look up its IC50: NC(=O)CN/C(=N\S(=O)(=O)c1ccc(Cl)cc1)N1CC(c2ccccc2)C(c2ccc(Cl)cc2)=N1 (racemic)
Key: 5

* * *

Assay: Apparent permeability from apical to basolateral side in MDR expressing MDCK cells by LC-MS-MS analysis
Assay type: ADME, cell-based, Canis lupus familiaris
Conditions: dog, MDCK-MDR1
ASSAY_METRIC: Papp A→B (×10⁻⁶ cm/s)
Dear colleague, please return just the value in ×10⁻⁶ cm/s, with no unit written.

Example cases with answers are listed next.
1) CNC(=NS(=O)(=O)c1ccc(Cl)cc1)N1CC(c2ccccc2)C(c2ccc(Cl)cc2)=N1 (racemic) [RAC-IBIPINABANT] = 9.45
2) C[C@H](NC(=O)[C@H](C)N/C(=N\S(=O)(=O)c1ccc(Cl)cc1)N1CC(c2ccccc2)C(c2ccc(Cl)cc2)=N1)C(N)=O (stereo partly drawn) = 0.3
3) NC(=O)CCN=C(NS(=O)(=O)c1ccc(Cl)cc1)N1CC(c2ccccc2)C(c2ccc(Cl)cc2)=N1 (racemic) = 0.88
4) NC(=O)CN/C(=N\S(=O)(=O)c1ccc(Cl)cc1)N1CC(c2ccccc2)C(c2ccc(Cl)cc2)=N1 (racemic) = 1.8
5) C[C@H](N/C(=N\S(=O)(=O)c1ccc(Cl)cc1)N1CC(c2ccccc2)C(c2ccc(Cl)cc2)=N1)C(N)=O (stereo partly drawn) = 2.44

Exercise: Please look up its Papp A→B: CC(C)[C@H](N/C(=N\S(=O)(=O)c1ccc(Cl)cc1)N1CC(c2ccccc2)C(c2ccc(Cl)cc2)=N1)C(N)=O (stereo partly drawn)
Key: 1.08

Exercise: Please look up its Papp A→B: CC(C)(C)[C@H](N/C(=N\S(=O)(=O)c1ccc(Cl)cc1)N1CC(c2ccccc2)C(c2ccc(Cl)cc2)=N1)C(N)=O (stereo partly drawn)
Key: 0.7

* * *

Target: Cannabinoid receptor 1 (Homo sapiens)
Assay: Displacement of 3[H]ligand from recombinant human CB1 receptor
Lab note - cut at 70 nM for IC50: Y if strictly below, N if not.

Consider the following illustrative entries.
1) CCOC(=O)c1ccc(S(=O)(=O)NC(=NC)N2CC(c3ccccc3)C(c3ccc(Cl)cc3)=N2)cc1 (racemic) = N
2) CN/C(=N\S(=O)(=O)c1ccc(C(=O)O)cc1)N1CC(c2ccccc2)C(c2ccc(Cl)cc2)=N1 (racemic) = N
3) CN/C(=N\S(=O)(=O)c1ccc(NC(C)=O)cc1)N1CC(c2ccccc2)C(c2ccc(Cl)cc2)=N1 (racemic) = N
4) C[C@H](N/C(=N\S(=O)(=O)c1ccc(Cl)cc1)N1CC(c2ccccc2)C(c2ccc(Cl)cc2)=N1)C(N)=O (stereo not given in full) = Y
5) COc1cccc(S(=O)(=O)/N=C(\N[C@H](C(N)=O)C(C)C)N2CC(c3ccccc3)C(c3ccc(Cl)cc3)=N2)c1 (stereo not given in full) = Y

Exercise: Record O=C(O)CN=C(NS(=O)(=O)c1ccc(Cl)cc1)N1CC(c2ccccc2)C(c2ccc(Cl)cc2)=N1 (stereo not given) : is its IC50 strictly below 70 nM?
Key: N

Exercise: Record COc1ccc(S(=O)(=O)NC(=NCC(N)=O)N2CC(c3ccccc3)C(c3ccc(Cl)cc3)=N2)cc1 (stereo not given) : is its IC50 strictly below 70 nM?
Key: N

Exercise: Record CC(C)[C@H](N/C(=N\S(=O)(=O)c1ccc(Cl)cc1)N1CC(c2ccccc2)C(c2ccc(Cl)cc2)=N1)C(=O)N[C@@H](C)C(N)=O (stereo not given in full) : is its IC50 strictly below 70 nM?
Key: N

Exercise: Record CC(C)(C)[C@H](N/C(=N\S(=O)(=O)c1ccc(Cl)cc1)N1CC(c2ccccc2)C(c2ccc(Cl)cc2)=N1)C(N)=O (stereo not given in full) : is its IC50 strictly below 70 nM?
Key: Y

* * *

Molecular target: Cannabinoid receptor 1 (Homo sapiens, UniProt P21554)
Sequence (P21554 whole entry): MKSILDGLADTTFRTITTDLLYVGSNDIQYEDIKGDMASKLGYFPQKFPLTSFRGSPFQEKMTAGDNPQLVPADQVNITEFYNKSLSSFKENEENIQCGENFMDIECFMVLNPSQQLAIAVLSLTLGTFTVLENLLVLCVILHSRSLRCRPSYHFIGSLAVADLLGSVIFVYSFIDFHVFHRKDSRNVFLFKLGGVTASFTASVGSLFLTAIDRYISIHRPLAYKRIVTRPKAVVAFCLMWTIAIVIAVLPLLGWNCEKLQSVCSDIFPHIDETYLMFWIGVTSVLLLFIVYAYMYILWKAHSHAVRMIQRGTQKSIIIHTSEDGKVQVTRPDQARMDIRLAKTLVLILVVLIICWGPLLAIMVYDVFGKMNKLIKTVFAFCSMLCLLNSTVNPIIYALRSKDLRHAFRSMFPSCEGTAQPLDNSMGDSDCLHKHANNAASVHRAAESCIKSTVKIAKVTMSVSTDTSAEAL
Assay: Displacement of 3[H]ligand from recombinant human CB1 receptor
pIC50: −log10 of the molar value.
Recorded pIC50 by entry

Example cases with answers are listed next.
1) CN=C(NS(=O)(=O)c1ccc(OCC(=O)O)cc1)N1CC(c2ccccc2)C(c2ccc(Cl)cc2)=N1 (racemic) = < 5.30
2) CN=C(NS(=O)(=O)c1ccc(C(=O)NO)cc1)N1CC(c2ccccc2)C(c2ccc(Cl)cc2)=N1 (racemic) = < 5.30
3) NC(=O)CN=C(NS(=O)(=O)c1ccc(O)cc1)N1CC(c2ccccc2)C(c2ccc(Cl)cc2)=N1 (stereo not given) = < 7.00

Exercise: Please look up its pIC50: CC(C)[C@H](N/C(=N\S(=O)(=O)c1ccc(Cl)cc1)N1C[C@@H](c2ccccc2)C(c2ccc(Cl)cc2)=N1)C(N)=O
Key: < 6.00

Exercise: Please look up its pIC50: CC(C)[C@H](N/C(=N\S(=O)(=O)c1ccc(Cl)cc1)N1CC(c2ccccc2)C(c2ccc(Cl)cc2)=N1)C(=O)NCC(N)=O (stereo not given in full)
Key: < 7.00

* * *

Biological target: Cannabinoid receptor 1 (Homo sapiens)
Assay: Displacement of 3[H]ligand from recombinant human CB1 receptor
ASSAY_METRIC: pIC50
Give only the number. pIC50 is defined as minus log10 of concentration in molar units.

Exercise: Please look up its pIC50: C[C@@H](O)[C@H](N/C(=N\S(=O)(=O)c1ccc(Cl)cc1)N1CC(c2ccccc2)C(c2ccc(Cl)cc2)=N1)C(=O)N[C@@H](CO)C(N)=O (stereo partly specified)
Key: 8.15

Exercise: Please look up its pIC50: COc1ccc(S(=O)(=O)NC(=N[C@@H](C)C(N)=O)N2CC(c3ccccc3)C(c3ccc(Cl)cc3)=N2)cc1 (stereo partly specified)
Key: 7.15

Exercise: Please look up its pIC50: C[C@H](N/C(=N\S(=O)(=O)c1ccc(Cl)cc1)N1CC(c2ccccc2)C(c2ccc(Cl)cc2)=N1)C(=O)NCC(N)=O (stereo partly specified)
Key: 8.00

* * *

Recorded IC50 by entry
Molecular target: Cannabinoid receptor 1 (Homo sapiens, UniProt P21554)
Test: Displacement of 3[H]ligand from recombinant human CB1 receptor

Example cases with answers are listed next.
1. COc1ccc(S(=O)(=O)NC(=N[C@H](C(=O)NCC(N)=O)C(C)C)N2CC(c3ccccc3)C(c3ccc(Cl)cc3)=N2)cc1 (stereo partly drawn) = > 0.1 µM
2. CN=C(NS(=O)(=O)c1ccc(OCC(N)=O)cc1)N1CC(c2ccccc2)C(c2ccc(Cl)cc2)=N1 (racemic) = > 5 µM

Here is the next item to consider.
Exercise: Form entry - test system: Cannabinoid receptor 1 (Homo sapiens, UniProt P21554); read-out: IC50; molecule: C[C@H](N/C(=N\S(=O)(=O)c1ccc(O)cc1)N1CC(c2ccccc2)C(c2ccc(Cl)cc2)=N1)C(N)=O (stereo partly drawn)
Key: > 0.5 µM
